test method notes: Human HepG2 cell viability assay in 384 well format
Format: toxicity, cell-based
Design: dose 125 nL, time 70.5 hour; concentration not given beside the values
measurement context: HepG2 cells, read-out: Inhibition
attribute measured: cytotoxicity at 70.5 h (%)
Respond numerically; units are % and should not be typed.

| compound | unit info | cytotoxicity at 70.5 h |
| --- | --- | --- |
| CCC[C@H]1CN(CCOC)C[C@@H]1NC(=O)Cn1cc(C)cn1 | % | 4.5 |

Ask: Need cytotoxicity at 70.5 h of COc1c(C2CCCN2c2ncnc3c2CCC3)c(C)nn1C (centres undefined) , thanks.
Reply: -2.31

Ask: Need cytotoxicity at 70.5 h of Cc1noc(C)c1-c1cccc(C2CN(S(=O)(=O)N(C)C)CCO2)n1 (centres undefined) , thanks.
Reply: -3.96

Ask: Need cytotoxicity at 70.5 h of Cn1cc(C[C@H]2[C@H](O)CCN2C(=O)C2CCOCC2)cn1 , thanks.
Reply: -7.24

Ask: Need cytotoxicity at 70.5 h of CCc1ccc(CN2CCC3(CC2)C(=O)N(C)CCN3CC)cc1 , thanks.
Reply: -10.4
